# SYSTEM_NAME: Phosphorylase b kinase gamma catalytic chain, liver/testis isoform (Homo sapiens) (UniProt P15735);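 further: reported value is the mean inhibition of PHKG2 from the GSK_PKIS screening set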
# Sequence (whole entry): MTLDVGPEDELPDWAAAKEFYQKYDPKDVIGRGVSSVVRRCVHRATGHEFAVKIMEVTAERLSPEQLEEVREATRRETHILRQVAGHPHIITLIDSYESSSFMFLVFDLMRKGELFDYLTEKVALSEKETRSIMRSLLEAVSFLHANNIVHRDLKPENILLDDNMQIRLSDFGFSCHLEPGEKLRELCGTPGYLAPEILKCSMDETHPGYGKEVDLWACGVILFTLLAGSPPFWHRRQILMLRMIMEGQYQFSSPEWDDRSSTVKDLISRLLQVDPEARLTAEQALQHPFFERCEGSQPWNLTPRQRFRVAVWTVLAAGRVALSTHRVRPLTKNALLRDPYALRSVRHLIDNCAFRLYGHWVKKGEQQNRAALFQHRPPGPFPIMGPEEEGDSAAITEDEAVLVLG
# MEASUREMENT_CONTEXT: at 1 µM
Below, each entry is listed with its recorded inhibition.
Write the value in % as a bare number.

Recorded inhibition for "CC(C)=Cc1cccc2c1/C(=N/Nc1ccc(S(N)(=O)=O)cc1)C(=O)N2" , please?
8.45

More entries:
If you can, please state the reported inhibition value of "CCc1cccc(NC(=O)Nc2ccc(Oc3ccc4nc(NC(=O)OC)[nH]c4c3)cc2)c1" .
3.57

Returns the measured inhibition for the input compound. Input: COc1ccc2cc(-c3c(-c4ccncc4)nc(-c4ccc([S+](C)[O-])cc4)n3C)ccc2c1 (stereo unspecified)
1.1

What does the data say about its inhibition? Entry: "O=C1NC(=O)C(c2ccc(Cl)cc2)=C1Nc1ccc(Cl)c(C(=O)O)c1"
-5.8

// query inhibition value for entry "O=C1Nc2ccc(C(=O)c3ccco3)cc2C1=Cc1cc(Cl)c(O)c(Cl)c1"
2.94

Quick check: inhibition of "COc1ccc(COc2ccc(Cc3cnc(N)nc3N)cc2OC)cc1" ?
-1.66

====

Entries annotated with measured inhibition
# SYSTEM_NAME: Tyrosine-protein kinase Srms (Homo sapiens) (UniProt Q9H3Y6)
# Sequence (Q9H3Y6 whole entry): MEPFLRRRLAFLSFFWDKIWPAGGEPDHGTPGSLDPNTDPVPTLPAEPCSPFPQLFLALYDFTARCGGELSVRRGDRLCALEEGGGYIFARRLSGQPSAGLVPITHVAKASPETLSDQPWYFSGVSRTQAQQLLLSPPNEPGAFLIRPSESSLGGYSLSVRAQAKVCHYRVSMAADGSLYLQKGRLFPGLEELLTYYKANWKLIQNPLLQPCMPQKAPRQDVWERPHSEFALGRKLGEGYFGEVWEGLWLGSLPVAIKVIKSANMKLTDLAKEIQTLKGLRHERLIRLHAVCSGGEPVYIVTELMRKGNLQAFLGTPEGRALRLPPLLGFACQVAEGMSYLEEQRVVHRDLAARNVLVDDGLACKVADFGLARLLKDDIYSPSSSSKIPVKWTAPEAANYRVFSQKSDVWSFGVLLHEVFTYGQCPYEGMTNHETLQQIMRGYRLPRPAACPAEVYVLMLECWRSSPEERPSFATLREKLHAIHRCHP
# MEASUREMENT_CONTEXT: at 1 µM
# Description: GSK_PKIS: SRMS mean inhibition at 1 uM [Nanosyn]
Give the number; % is assumed, so skip it.

Consider the reported inhibition for these compounds:
inhibition for "CN(C)c1cc2c(Nc3ccc4nc(Cc5ccccc5)[nH]c4c3)ncnc2cn1" ?
8.06

What does the record list as inhibition for COc1ccc2cc(-c3c(-c4ccncc4)nc(-c4ccc([S+](C)[O-])cc4)n3C)ccc2c1 (stereo not given) ?
-1.29

Name the reported inhibition value associated with the compound "O=C1NC(=O)C(c2cccc(Cl)c2)=C1Nc1ccc(O)c(Cl)c1"
-1.95

Tell me the measured inhibition of "O=C(Nc1n[nH]c2nc(-c3ccco3)c(Br)cc12)C1CC1" , please.
-0.3

Sample CC1=C(C(=O)Nc2ccc3[nH]ncc3c2)C(c2ccc3ccccc3c2)CC(=O)N1 (stereo not given) — what was its inhibition?
1.41

Param item = "Cc1ccc(C(=O)NC2CCCCC2)cc1-c1ccc(C(=O)NCC2CC2)cc1" ; retrieve measured inhibition.
0.74

# query: inhibition of entry "Nc1ncnc2occ(-c3ccc(NC(=O)Nc4cc(C(F)(F)F)cc(C(F)(F)F)c4)cc3)c12"
-0.05

For the compound shown here, "CCn1c(-c2nonc2N)nc2cncc(C(=O)N3CCNCC3)c21" , give the reported inhibition.
-2.89

---
So what does the record say about inhibition for "Cc1nn(C)c2cc(N(C)c3ccnc(Nc4cccc(S(N)(=O)=O)c4)n3)ccc12" ?
9.11

// query inhibition value for entry "COc1cc2c(cc1Nc1nc(N3CCc4ccccc43)c3cc[nH]c3n1)N(C(=O)CN(C)C)CC2"
-1.29
